assay: NCI Yeast Anticancer Drug Screen. Data for the cln2 rad14 strain (AID 165);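 also: 0% = growth equal to vehicle treated cultures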; conditions: S. cerevisiae cln2 rad14 strain, at 50.0 µM, stronger effect = higher value
About 79,000 compounds went through this panel and 15% of them were active in at least one assay; those are over-represented in the sample as a whole.
READOUT_LABEL: growth inhibition (%)
Answers are plain numbers, in %.

Here are 3 compounds together with their reported answers.
1) COC(=O)c1ccc(NC(=O)c2cc(OC)c(OC)c(OC)c2)cc1: -5.05
2) COc1ccc(C(=O)C(CO)Oc2ccccc2OC)cc1OC (stereo not given): 4.25
3) O[C@@H]1CC2(Cl)CC1(Cl)C(Cl)=C2Cl (stereo not given in full): -2.05

Look up growth inhibition for the entries below, preserving their order.
1. O=C1NC(=O)C2(CCN(Cc3ccccc3)CC2)N1c1ccccc1
2. CCOC(=O)c1cc(-c2ccccc2)nc2nc(N)ccc12
3. Brc1ccc2noc(-c3ccccc3)c2c1

Output:
1. 6
2. 9.05
3. -1.6

Parameter requested: growth inhibition. Apply to each item below.
1. CC1CCC2C(C)C3C(CC4C5CC=C6CC(O)CCC6(C)C5CCC43COC(=O)c3ccccc3)N2C1 (stereo not given)
2. O=c1cc(NCc2cccc([N+](=O)[O-])c2)[nH]c(=O)[nH]1
3. CC(=O)N1CN2C(=O)CCC2c2cc(C)ccc21 (stereo not given)
4. O=C(OCc1ccccc1CN1CCOCC1)c1cccc(Cl)c1
5. CC1=CC(=O)C(=O)c2ccccc21
6. CCOC(=O)C1(Br)C(c2ccccc2)NC(=O)N(C2OC(COC(=O)c3ccccc3)C(OC(=O)c3ccccc3)C2OC(=O)c2ccccc2)C1(C)Br (stereo not given)
7. CCC(=O)Oc1ccc(Cl)cc1C

Output:
[21.4, -12.6, 7.8, -0.05, 10.4, 6.4, 5.55]
